Target: Amyloid-beta precursor protein (Homo sapiens)
Test: Inhibition of human amyloid beta (1 to 42) assessed as reduction in fibrillisation AUC in cell-free solution at 100 uM measured every 10 mins for 48 hrs by Thioflavin T based fluorescence assay
Activity calls are given as the source filed them. No cut-off for these calls is given here.
Outcomes: true (1) (active), false (0) (inactive)

INSERT INTO measurements (chemical_string, label_value) VALUES
  ('O=c1c(O)c(-c2ccc(O)c(O)c2)oc2cc(O)cc(O)c12', 'true (1)'),
  ('O=c1cc(-c2ccc(O)c(O)c2O)oc2ccccc12', 'true (1)'),
  ('COc1cc(-c2cc(=O)c3c(O)c(OC)c(O)cc3o2)ccc1O', 'false (0)'),
  ('COc1c(-c2ccc(O)c(O)c2)oc2c(O)c(O)ccc2c1=O', 'true (1)'),
  ('COc1ccc(-c2cc(=O)c3c(OC)c(OC)c(OC)c(OC)c3o2)cc1OC', 'false (0)');
